# tgt: purified ITK (Invitrogen PV3875) (Homo sapiens, UniProt Q08881)
# Construct: purchased Invitrogen PV3875
# Sequence (Q08881 1-620): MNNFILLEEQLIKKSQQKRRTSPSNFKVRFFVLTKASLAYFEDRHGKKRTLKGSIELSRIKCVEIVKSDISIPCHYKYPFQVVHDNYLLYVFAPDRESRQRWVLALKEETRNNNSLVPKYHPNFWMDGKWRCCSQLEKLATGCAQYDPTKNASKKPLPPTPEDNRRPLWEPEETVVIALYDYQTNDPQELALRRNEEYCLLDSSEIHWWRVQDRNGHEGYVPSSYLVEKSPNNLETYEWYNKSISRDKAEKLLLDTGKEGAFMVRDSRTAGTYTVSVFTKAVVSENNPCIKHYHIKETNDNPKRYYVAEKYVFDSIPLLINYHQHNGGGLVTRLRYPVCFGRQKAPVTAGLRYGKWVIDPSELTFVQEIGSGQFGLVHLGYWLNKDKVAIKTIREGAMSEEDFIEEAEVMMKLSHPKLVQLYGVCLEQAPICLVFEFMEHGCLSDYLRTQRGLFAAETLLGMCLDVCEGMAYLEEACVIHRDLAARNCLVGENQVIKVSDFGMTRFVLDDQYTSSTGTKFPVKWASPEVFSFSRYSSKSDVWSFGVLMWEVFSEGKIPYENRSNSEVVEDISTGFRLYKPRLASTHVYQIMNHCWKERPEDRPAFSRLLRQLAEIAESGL
# assay.explanation: ITK peptide phosphorylation assay (Caliper LabChip or LCMS)
# Type: biochemical
# protocol.conditions: Table 1, Examples 141-279
pKi: −log10 of the molar value.
Assign Fulfilled to entries whose pKi meets or exceeds 8; assign Not fulfilled to the rest.

compound	assigned.class
N#Cc1cccc(Cn2cc(NC(=O)c3n[nH]c4cc(-c5cncnc5)c(F)cc34)cn2)c1 [Example 154]	Not fulfilled
O=C(Nc1cnn(Cc2ccccc2)c1)c1n[nH]c2cc(-c3cncc(F)c3)ccc12 [Example 210]	Fulfilled
O=C(Nc1cnn(Cc2csc(N3CCC(O)CC3)n2)c1)c1n[nH]c2cc(-c3cn[nH]c3)ccc12 [Example 159]	Fulfilled
O=C(Nc1cnn(Cc2cccnn2)c1)c1n[nH]c2cc(-c3cn[nH]c3)ccc12 [Example 225]	Fulfilled
O=C(Nc1cnn(CC2COCCO2)c1)c1n[nH]c2cc(-c3cn[nH]c3)ccc12 (stereo not shown) [Example 237]	Fulfilled
N#Cc1cccc(Cn2cc(NC(=O)c3n[nH]c4cc(-c5cncc(Cl)c5)ccc34)cn2)c1 [Example 224]	Fulfilled
COc1cncc(-c2ccc3c(C(=O)Nc4cnn(C(C)C)c4)n[nH]c3c2)c1 [Example 223]	Not fulfilled
O=C(Nc1cnn(CC2CNC2)c1)c1n[nH]c2cc(-c3cn[nH]c3)ccc12 [Example 262]	Fulfilled
O=C(Nc1cnn(CC2CC3CCC2C3)c1)c1n[nH]c2cc(-c3cn[nH]c3)ccc12 (stereo not shown) [Example 251]	Fulfilled
Cc1cc2c(C(=O)Nc3cnn(Cc4cccc(C#N)c4)c3)n[nH]c2cc1-c1ccc(N)nc1 [Example 150]	Not fulfilled
COc1cncc(-c2ccc3c(C(=O)Nc4cnn(Cc5ccncc5)c4)n[nH]c3c2)c1 [Example 219]	Not fulfilled
Cc1cc2c(C(=O)Nc3cnn(Cc4cccc(C#N)c4)c3)n[nH]c2cc1-c1cc[nH]n1 [Example 156]	Not fulfilled
Cc1cc2c(C(=O)Nc3cnn(Cc4cccc(C#N)c4)c3)n[nH]c2cc1-c1cncc(C#N)c1 [Example 148]	Not fulfilled

---

# tgt: purified ITK (Invitrogen PV3875) (Homo sapiens)
# Construct: purchased Invitrogen PV3875
# assay.explanation: ITK peptide phosphorylation assay (Caliper LabChip or LCMS)
# Format: biochemical
# protocol.conditions: Table 1, Examples 141-279
pKi: −log10 of the molar value.

compound	pKi
CN1CC=C(c2ccc3c(C(=O)Nc4cnn(Cc5cccc(C#N)c5)c4)n[nH]c3c2)CC1	6.18
N#Cc1cccc(Cn2cc(NC(=O)c3n[nH]c4cc(-c5cc[nH]n5)c(F)cc34)cn2)c1	7.00
COc1cncc(-c2ccc3c(C(=O)Nc4cnn(C(CCN(C)C)c5ccccc5)c4)n[nH]c3c2)c1 (centres unmarked) [Example 213]	8.10
N#Cc1cccc(Cn2cc(NC(=O)c3n[nH]c4ccc(NC5CCNCC5)cc34)cn2)c1	8.57
COc1cncc(-c2ccc3c(C(=O)Nc4cnn(Cc5cccnc5)c4)n[nH]c3c2)c1	7.76

---

# tgt: purified ITK (Invitrogen PV3875) (Homo sapiens, UniProt Q08881)
# Construct: purchased Invitrogen PV3875
# assay.explanation: ITK peptide phosphorylation assay (Caliper LabChip or LCMS)
# Format: biochemical
# protocol.conditions: Table 2, Examples 1-140, class symbols
Measured Ki accompanies every entry in the list below.
observation.type: Ki

molecule	tgt	observed.result
O=C(Nc1cnn(Cc2cccc(CNC3CC3)c2)c1)c1n[nH]c2ccccc12	purified ITK (Invitrogen PV3875) (Homo sapiens, UniProt Q08881)	1 to 100 nM
COC(=O)c1cccc(Cn2cc(NC(=O)c3n[nH]c4cc(-c5cn[nH]c5)ccc34)cn2)c1	purified ITK (Invitrogen PV3875) (Homo sapiens, UniProt Q08881)	1 to 100 nM
COc1ccc(Cn2cc(NC(=O)c3n[nH]c4ccccc34)cn2)cc1	purified ITK (Invitrogen PV3875) (Homo sapiens, UniProt Q08881)	1 to 100 nM
N#Cc1cccc(Cn2cc(NC(=O)c3n[nH]c4ccc(F)cc34)cn2)c1	purified ITK (Invitrogen PV3875) (Homo sapiens, UniProt Q08881)	1 to 100 nM
CC(c1ccccc1)n1cc(NC(=O)c2n[nH]c3ccccc23)cn1 (stereo not shown)	purified ITK (Invitrogen PV3875) (Homo sapiens, UniProt Q08881)	1 to 100 nM
CN(CCC#N)Cc1cccc(Cn2cc(NC(=O)c3n[nH]c4ccccc34)cn2)c1	purified ITK (Invitrogen PV3875) (Homo sapiens, UniProt Q08881)	1 to 100 nM
O=C(Nc1cnn(Cc2csc(-c3ccccn3)n2)c1)c1n[nH]c2cc(-c3cn[nH]c3)ccc12	purified ITK (Invitrogen PV3875) (Homo sapiens, UniProt Q08881)	0.01 to 1 nM
CC[C@@H](c1ccccc1)n1cc(NC(=O)c2n[nH]c3cc(-c4cncnc4)ccc23)cn1	purified ITK (Invitrogen PV3875) (Homo sapiens, UniProt Q08881)	1 to 100 nM
NC(=O)c1cccc(Cn2cc(NC(=O)c3n[nH]c4cc(-c5cn[nH]c5)ccc34)cn2)c1	purified ITK (Invitrogen PV3875) (Homo sapiens, UniProt Q08881)	0.01 to 1 nM
O=C(Nc1cnn(CCN2CCCC(O)C2)c1)c1n[nH]c2ccccc12 (stereo not shown)	purified ITK (Invitrogen PV3875) (Homo sapiens, UniProt Q08881)	> 100 nM

---

# tgt: purified ITK (Invitrogen PV3875) (Homo sapiens, UniProt Q08881)
# Construct: purchased Invitrogen PV3875
# assay.explanation: ITK peptide phosphorylation assay (Caliper LabChip or LCMS)
# Assay type: biochemical
# protocol.conditions: Table 1, Examples 141-279

compound	Ki
CN(C)CC(c1ccccc1)n1cc(NC(=O)c2n[nH]c3ccccc23)cn1 (stereo not drawn) [Example 275]	7.83 nM
O=C(Nc1cnn(Cc2cncc(Br)c2)c1)c1n[nH]c2cc(-c3cn[nH]c3)ccc12 [Example 143]	0.614 nM
N#Cc1cccc(Cn2cc(NC(=O)c3n[nH]c4cc(NC5CCNCC5)ccc34)cn2)c1 [Example 173]	1200 nM

---

Here, each record is paired with measured pKi data.
# tgt: purified ITK (Invitrogen PV3875) (Homo sapiens, UniProt Q08881)
# Construct: purchased Invitrogen PV3875
# assay.explanation: ITK peptide phosphorylation assay (Caliper LabChip or LCMS)
# Assay type: biochemical
# protocol.conditions: Table 2, Examples 1-140, class symbols
pKi: −log10 of the molar value.
observation.type: pKi

molecule	observation.type	observed.result
COc1cncc(-c2ccc3c(C(=O)Nc4cnn(Cc5ccccc5)c4)n[nH]c3c2)c1	pKi	7.00 to 9.00
Cc1ccc(-c2ccc3c(C(=O)Nc4cnn(Cc5cccc(C#N)c5)c4)n[nH]c3c2)cn1	pKi	7.00 to 9.00
O=C(Nc1cnn(CCCCN2CCCC(O)C2)c1)c1n[nH]c2ccccc12 (stereo not drawn)	pKi	< 7.00

---

# tgt: purified ITK (Invitrogen PV3875) (Homo sapiens, UniProt Q08881)
# Construct: purchased Invitrogen PV3875
# assay.explanation: ITK peptide phosphorylation assay (Caliper LabChip or LCMS)
# Format: biochemical
# protocol.conditions: Table 1, Examples 141-279
pKi: −log10 of the molar value.
Property: pKi; scope: individual compounds
observation.type: pKi

compound	observation.type	observed.result
COc1cncc(-c2ccc3c(C(=O)Nc4cnn(Cc5cccc(C#N)c5)c4)n[nH]c3c2)c1	pKi	8.11
CN(CCC(c1ccccc1)n1cc(NC(=O)c2n[nH]c3ccccc23)cn1)CC(F)(F)F (stereo not drawn) [Example 270]	pKi	8.05
CCC(c1ccccc1)n1cc(NC(=O)c2n[nH]c3cc(-c4cncc(OC)c4)ccc23)cn1 (stereo not drawn) [Example 214]	pKi	8.14
